tested on: HBEC-34KT; experiment: MTS viability assay; type: cell-based, human; conditions: Homo sapiens, 96 h, Patient B normal line, 4 days, read-out: Antiproliferative activity IC50, HBEC-34KT
MEASURED ATTRIBUTE: IC50

Known results for molecules:
| STRUCTURE | STUDY TARGET | MEASURED ATTRIBUTE | READING |
| --- | --- | --- | --- |
| O=C(NO)c1ccc(S(=O)(=O)N2CCN(c3nc4ccccc4[nH]3)CC2)cc1 | HBEC-34KT | IC50 | > 10 µM |
| O=C(NO)c1ccc(S(=O)(=O)N2CCN(c3nc4ccccc4o3)CC2)cc1 | HBEC-34KT | IC50 | > 10 µM |

Continue with the molecule presented below.
// assay HBEC-34KT, entry "Cn1c(N2CCN(S(=O)(=O)c3ccc(C(=O)NO)cc3)CC2)nc2ccccc21" , IC50 value = > 10 µM
